- measurement.protocol: Phase 1a plasma pharmacokinetics of SJ733 and metabolite SJ506
- Format: in vivo, human
- stated.conditions: human, plasma, oral, maximal Cmax, unboosted SAD and MAD cohorts
measured.property: Cmax (ng/mL)

molecule.smiles: N#Cc1cc(NC(=O)[C@H]2c3ccccc3C(=O)N(CC(F)(F)F)[C@@H]2c2cccnc2)ccc1F
readout.units: ng/mL
numeric.value: 2180

###

- measurement.protocol: Phase 1a plasma pharmacokinetics of SJ733 and metabolite SJ506
- Assay type: in vivo, human
- stated.conditions: human, plasma, oral

molecule.smiles: N#Cc1cc(NC(=O)[C@H]2c3ccccc3C(=O)N(CC(F)(F)F)[C@@H]2c2cccnc2)ccc1F
AUC(0-inf) [µg·h/mL]: 104
